# TESTED TARGET: minipig insulin receptor (INSR) on CHOK1 cells (minipig, UniProt F1SCL0 28-758; F1SCL0 763-1382)
# PROTOCOL DETAILS: cell-based or functional assay
TEST READOUT: EC50 (nM), pAKT signaling assay

1. XPA.15.247.2.018 IgG (antibody, V domains shown, Tested as IgG; also called XPA.15.247.2.018 antibody) VH: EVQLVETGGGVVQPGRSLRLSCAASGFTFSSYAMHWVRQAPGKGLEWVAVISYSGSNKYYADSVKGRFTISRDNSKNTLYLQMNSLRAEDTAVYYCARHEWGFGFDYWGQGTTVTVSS VL: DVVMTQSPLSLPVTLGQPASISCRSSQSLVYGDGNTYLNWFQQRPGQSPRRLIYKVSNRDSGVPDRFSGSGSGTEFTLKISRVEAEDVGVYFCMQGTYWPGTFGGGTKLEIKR    0.3
2. XPA.15.247.2.011 Fab (Fab, V domains shown, Fab; also called XPA.15.247.011) VH: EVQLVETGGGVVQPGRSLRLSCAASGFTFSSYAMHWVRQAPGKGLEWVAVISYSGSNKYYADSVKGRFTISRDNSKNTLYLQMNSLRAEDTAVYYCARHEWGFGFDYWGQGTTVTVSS VL: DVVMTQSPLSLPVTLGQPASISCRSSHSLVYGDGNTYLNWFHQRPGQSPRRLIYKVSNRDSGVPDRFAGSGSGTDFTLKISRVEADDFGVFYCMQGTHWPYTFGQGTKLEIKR    4.4
3. XPA.15.247.2.011 IgG (antibody, V domains shown, Tested as IgG; also called XPA.15.247.011) VH: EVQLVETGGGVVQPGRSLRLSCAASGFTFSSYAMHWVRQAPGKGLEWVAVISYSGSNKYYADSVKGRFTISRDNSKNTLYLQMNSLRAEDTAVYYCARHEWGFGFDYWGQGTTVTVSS VL: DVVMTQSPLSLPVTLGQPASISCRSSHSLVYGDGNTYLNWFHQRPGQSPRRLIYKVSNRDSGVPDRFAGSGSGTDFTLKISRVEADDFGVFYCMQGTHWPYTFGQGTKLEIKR    1.7

Origin of measurements: patent US20180251562A1
